Listed here: items and their measured IC50.
# study.target: Beta-secretase 1 (Homo sapiens, UniProt P56817)
# Sequence (P56817 whole entry): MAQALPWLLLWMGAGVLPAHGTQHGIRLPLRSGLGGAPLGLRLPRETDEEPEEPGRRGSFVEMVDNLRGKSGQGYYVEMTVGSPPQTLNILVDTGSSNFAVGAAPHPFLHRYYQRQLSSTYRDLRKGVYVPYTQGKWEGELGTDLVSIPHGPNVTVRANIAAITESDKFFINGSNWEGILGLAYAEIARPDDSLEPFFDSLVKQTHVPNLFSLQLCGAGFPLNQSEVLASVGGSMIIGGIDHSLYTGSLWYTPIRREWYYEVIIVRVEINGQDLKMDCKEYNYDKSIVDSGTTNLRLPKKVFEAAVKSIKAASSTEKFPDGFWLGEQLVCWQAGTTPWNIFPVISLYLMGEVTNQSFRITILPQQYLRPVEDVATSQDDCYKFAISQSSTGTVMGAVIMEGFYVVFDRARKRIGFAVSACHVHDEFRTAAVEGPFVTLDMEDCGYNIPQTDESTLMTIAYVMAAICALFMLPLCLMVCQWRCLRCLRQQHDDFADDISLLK
Give the value, in units of µM, as a plain number.

Answered examples (2):
Observed IC50 on Beta-secretase 1 (Homo sapiens, UniProt P56817) for CC(C)CC1(C)NC(=N)N(Cc2ccc(CNC(=O)Nc3ccc(C#N)cc3)cc2)C1=O (racemic) , please.
7

Same read-out for CCCCNC(=O)NCc1ccc(CN2C(=N)NC(CCC3CCCCC3)(CC3CCCCC3)C2=O)cc1 (stereo not drawn) ?
0.35

---
# value lookup — system Beta-secretase 1 (Homo sapiens, UniProt P56817), readout IC50, item CCCCNC(=O)NCc1ccc(CN2C(=N)NC(C)(CC3CCCCC3)C2=O)cc1 (racemic)
5
